Value source: ChEMBL document CHEMBL3988442

- STUDY_SYSTEM: Tyrosyl-tRNA synthetase, putative (Trypanosoma cruzi (strain CL Brener)) (UniProt Q4DSP6)
- Sequence (Q4DSP6 as listed by the source): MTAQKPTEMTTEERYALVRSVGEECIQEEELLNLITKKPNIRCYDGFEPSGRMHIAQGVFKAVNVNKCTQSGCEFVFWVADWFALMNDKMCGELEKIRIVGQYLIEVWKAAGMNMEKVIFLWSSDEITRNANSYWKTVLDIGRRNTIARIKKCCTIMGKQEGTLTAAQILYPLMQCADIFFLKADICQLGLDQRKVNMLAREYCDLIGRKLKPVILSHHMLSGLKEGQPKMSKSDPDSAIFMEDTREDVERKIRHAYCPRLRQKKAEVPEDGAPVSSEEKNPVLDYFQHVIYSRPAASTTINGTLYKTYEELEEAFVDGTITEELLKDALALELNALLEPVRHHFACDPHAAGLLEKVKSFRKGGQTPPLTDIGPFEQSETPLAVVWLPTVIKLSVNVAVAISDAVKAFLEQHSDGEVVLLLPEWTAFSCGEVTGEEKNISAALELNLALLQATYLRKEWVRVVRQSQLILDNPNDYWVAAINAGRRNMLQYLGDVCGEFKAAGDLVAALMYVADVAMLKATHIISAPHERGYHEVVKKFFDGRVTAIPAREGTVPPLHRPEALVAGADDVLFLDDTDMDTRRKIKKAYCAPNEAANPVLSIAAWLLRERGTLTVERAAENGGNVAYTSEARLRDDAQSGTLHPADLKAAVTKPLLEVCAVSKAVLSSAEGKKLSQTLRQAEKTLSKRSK
- TEST: Trypanosoma cruzi tyrosyl tRNA synthetase (TcYRS) SOP
- Assay type: functional
- Design: scale not given: direction of the effect not stated beside the values
- CONDITION_DESCRIPTION: 30 µM
EXPERIMENTAL_READOUT: Percent Effect (%)
Answer format: numeric, % implied, no suffix.

Solved cases below.
- COMPOUND: "O=C(NCc1cncc2c1CCN(Cc1cccc(F)c1)C2)C1CC1"
  STUDY_SYSTEM: "Tyrosyl-tRNA synthetase, putative (Trypanosoma cruzi (strain CL Brener)) (UniProt Q4DSP6)"
  Percent Effect, %: 6.17
- COMPOUND: "COc1cccc(CNC(=O)CC2CSc3ncc(C)c(=O)n32)c1 (stereo unspecified)"
  STUDY_SYSTEM: "Tyrosyl-tRNA synthetase, putative (Trypanosoma cruzi (strain CL Brener)) (UniProt Q4DSP6)"
  Percent Effect, %: 3.85
- COMPOUND: "Cc1ccc(CN2CCn3c(C(=O)N(C)C)cnc3C2)s1"
  STUDY_SYSTEM: "Tyrosyl-tRNA synthetase, putative (Trypanosoma cruzi (strain CL Brener)) (UniProt Q4DSP6)"
  Percent Effect, %: 8.97
- COMPOUND: "CN(Cc1ccco1)Cc1ccccc1CNC(=O)c1ccncc1"
  STUDY_SYSTEM: "Tyrosyl-tRNA synthetase, putative (Trypanosoma cruzi (strain CL Brener)) (UniProt Q4DSP6)"
  Percent Effect, %: 4.88
- COMPOUND: "CCCc1noc(CCC(=O)NC(C)c2nnc3n2CCCCC3)n1 (stereo unspecified)"
  STUDY_SYSTEM: "Tyrosyl-tRNA synthetase, putative (Trypanosoma cruzi (strain CL Brener)) (UniProt Q4DSP6)"
  Percent Effect, %: 8.64

API: the following record is the query input.
Challenge: Percent Effect of CCc1ccc(OCC(O)CN2CCN(S(C)(=O)=O)CC2)cc1 (stereo unspecified) on Tyrosyl-tRNA synthetase, putative (Trypanosoma cruzi (strain CL Brener)) (UniProt Q4DSP6)?
Response given: 2.35

* * *

Quick list: Percent Effect per entry.
- Species on record: Homo sapiens
- TEST: To identify inhibition of the IFN signalling (Jak-Stat) pathway via expression of an eGFP reporter gene under the control of an IFN-stimulated response element (ISRE) containing MxA promoter.
- Assay type: functional
- Design: scale not given: direction of the effect not stated beside the values
- CONDITION_DESCRIPTION: 30 µM
Answer format: numeric, % implied, no suffix.

- COMPOUND: "COc1ccc(CCN2CCN(C(=O)c3scnc3C)CC2)cc1"
  ASSAY_RESULT: -22.1
- COMPOUND: "O=C(CCc1cccs1)N1CCCCC1Cn1cccn1 (stereo not given)"
  ASSAY_RESULT: 1.69
- COMPOUND: "CCc1cc(NCCNc2cccnc2)n2nccc2n1"
  ASSAY_RESULT: 13.2
- COMPOUND: "Cc1cc(N2CCN(CCO)CC2)nc(-c2ccncc2)n1"
  ASSAY_RESULT: -0.921
- COMPOUND: "Cc1cnc(NC(=O)N2CCCC2)s1"
  ASSAY_RESULT: 6.72
- COMPOUND: "CC(=O)N1CCN(C(=O)CCCc2nc(C(C)C)no2)CC1"
  ASSAY_RESULT: 37.4
- COMPOUND: "CN(C)C(=O)N1C[C@H]2CN(Cc3cccc(F)c3)C(=O)[C@H]2C1"
  ASSAY_RESULT: 4.49
- COMPOUND: "Cn1cc(Cl)cc1C(=O)N1CCN(Cc2ccsc2)CC1"
  ASSAY_RESULT: -2.56
- COMPOUND: "N#Cc1ccc(OCCCN2CCc3cncnc3C2)cc1"
  ASSAY_RESULT: 18.3
- COMPOUND: "O=C(NCCn1ccc(-c2ccccn2)n1)C1CC1"
  ASSAY_RESULT: 7.05

Challenge: So what's the measured Percent Effect for this one? COCC1c2nnn(CC3CC3)c2CCN1C(=O)c1cccc(F)c1 (stereo not given)
Response given: 10

Challenge: So what's the measured Percent Effect for this one? CCc1ccccc1-n1nnc(C(=O)O)c1-c1ccccn1
Response given: -17.6
